FYI, the data here is from patent US8809336B2.

tgt: PKB-PIF fusion protein (Homo sapiens)
Construct: PIF (fusion partner); made in house
Sequence (P31751 with tags, fused parts or gaps limits assumed): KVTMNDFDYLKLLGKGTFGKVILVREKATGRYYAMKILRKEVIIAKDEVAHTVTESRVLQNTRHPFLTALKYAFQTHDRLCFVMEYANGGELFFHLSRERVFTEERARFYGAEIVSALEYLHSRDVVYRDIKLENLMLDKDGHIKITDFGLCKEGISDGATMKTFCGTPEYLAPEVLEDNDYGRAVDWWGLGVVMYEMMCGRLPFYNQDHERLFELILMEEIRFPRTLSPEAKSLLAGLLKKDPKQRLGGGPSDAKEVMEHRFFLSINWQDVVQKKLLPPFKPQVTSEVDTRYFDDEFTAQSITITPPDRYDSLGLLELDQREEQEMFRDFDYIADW
testName: Measurement of PKB kinase inhibitory activity (IC50), 33P-ATP phosphocellulose filter assay
Assay type: biochemical
Method: The inhibition of protein kinase B (PKB) activity by compounds can be determined essentially as described by Andjelkovic et al. (Mol. Cell. Biol. 19, 5061-5072 (1999)) but using a fusion protein described as PKB-PIF and described in full by Yang et al (Nature Structural Biology 9, 940-944 (2002)). […] Compounds are added in DMSO solution to a final DMSO concentration of 2.5%. […] After washing, scintillant is added and the incorporated activity measured by scintillation counting. […]
observedProperty: IC50

> print(dat)
                                  structure  observedproperty  observedresult
1  N#CC1(c2ccc(Cl)cc2)CCN(c2ncnc3[nH]ccc23)CC1              IC50         < 10 µM
2  NC1(c2ccc(Cl)cc2)CCN(c2ncnc3[nH]ccc23)CC1              IC50         < 10 µM
3  CNCC1(c2ccc(Cl)cc2)CCN(c2ncnc3[nH]ccc23)CC1              IC50         < 10 µM

----------
tgt: PKA catalytic domain (Homo sapiens)
Construct: using the PKA catalytic domain from Upstate Biotechnology (#14-440); purchased Upstate Biotechnology 14-440
testName: Measurement of PKA kinase inhibitory activity (IC50), 33P-ATP filter plate assay
Format: biochemical
experimentalConditions: 1 nM enzyme, 40 μM ATP, 20 minutes; read-out: IC50, inhibition of PKA activity
Protocol: A final concentration of 1 nM enzyme is used in a buffer that includes 20 mM MOPS pH 7.2, 40 μM ATP/γ^33P-ATP and […] substrate. Compounds are added in dimethylsulphoxide (DMSO) solution to a final DMSO concentration of 2.5%. The reaction is allowed to proceed for 20 minutes before addition of excess orthophosphoric acid to quench activity. Unincorporated γ^33P-ATP is then separated from phosphorylated proteins on a Millipore MAPH filter plate. […]
observedProperty: IC50

> print(dat)
                                   structure  observedresult
 1  O=c1[nH]c2ncnc(N3CCC(O)(Cc4ccccc4)CC3)c2[nH]1         < 50 µM
 2  NCC1(c2ccc(OC(F)(F)F)cc2)CCN(c2ncnc3[nH]cnc23)CC1         < 10 µM
 3  O=c1[nH]c2ncnc(N3CCC(NCc4cccc(Cl)c4)CC3)c2[nH]1         < 10 µM
 4  COc1ccc(C2(CN)CCN(c3ncnc4[nH]ccc34)CC2)cc1         < 10 µM
 5  CN(C)C1(Cc2ccc(Cl)cc2)CCN(c2ncnc3[nH]ccc23)CC1         < 10 µM
 6  NCC1(c2ccc(Cl)c(Cl)c2)CCN(c2ncnc3[nH]ccc23)CC1         < 10 µM
 7  NCC1(c2cccc(Cl)c2)CCN(c2ncnc3[nH]ccc23)CC1         < 10 µM
 8  O=c1[nH]c2ncnc(N3CCN[C@H](COCc4ccccc4)C3)c2[nH]1         < 50 µM
 9  NCC1(c2ccc(C(F)(F)F)cc2)CCN(c2ncnc3[nH]ccc23)CC1         < 10 µM
10  NCC1(c2ccc(Cl)cc2)CCN(c2ncnc3[nH]ccc23)CC1         < 10 µM
11  NCC1(Cc2ccc(Cl)cc2)CCN(c2ncnc3[nH]ccc23)CC1         < 10 µM
12           O=c1[nH]c2ncnc(N3CCNCC3)c2[nH]1         < 10 µM
13  NCC1(c2ccc(Cl)cc2)CCN(c2ncnc3[nH]c(=O)[nH]c23)CC1         < 10 µM
14               NC1CCN(c2ncnc3[nH]ccc23)CC1         < 10 µM
15               NC1CCN(c2ncnc3[nH]ncc23)CC1         < 10 µM
16        NC1CCN(c2ncnc3[nH]c(=O)[nH]c23)CC1         < 50 µM
17  O=c1[nH]c2ncnc(N3CCC(NCc4ccccc4Cl)CC3)c2[nH]1         < 50 µM
18  NCC1(c2ccc(OCc3ccccc3)cc2)CCN(c2ncnc3[nH]ccc23)CC1         < 10 µM
19  NC1(Cc2ccc(Cl)cc2)CCN(c2ncnc3[nH]cnc23)CC1         < 10 µM
20               NC1CCN(c2ccnc3[nH]ccc23)CC1         < 10 µM
21  O=c1[nH]c2ncnc(N3CCC(NCCc4ccccc4)CC3)c2[nH]1         < 10 µM
22              CNC1CCN(c2ncnc3[nH]cnc23)CC1         < 10 µM
